# TESTED_SYSTEM: glucosylceramide synthase (Homo sapiens)
# Construct: made in house; host or cells: Expi293F cells (transient expression, pcDNA3.3-TOPO vector); microsome fraction used as enzyme source
# Sequence (Q16739 whole entry): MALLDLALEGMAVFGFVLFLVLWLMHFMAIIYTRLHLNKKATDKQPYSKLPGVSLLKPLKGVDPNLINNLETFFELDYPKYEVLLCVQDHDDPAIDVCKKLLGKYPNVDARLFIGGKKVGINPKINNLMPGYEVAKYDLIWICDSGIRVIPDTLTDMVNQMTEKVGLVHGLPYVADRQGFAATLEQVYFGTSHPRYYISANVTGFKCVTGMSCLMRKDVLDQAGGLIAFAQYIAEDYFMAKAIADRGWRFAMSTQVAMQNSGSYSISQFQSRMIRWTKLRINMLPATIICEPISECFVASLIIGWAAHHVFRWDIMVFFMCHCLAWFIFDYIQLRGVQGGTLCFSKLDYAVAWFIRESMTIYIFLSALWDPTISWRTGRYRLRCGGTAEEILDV
# TEST_PROTOCOL: Glucosylceramide synthase (GCS) enzyme assay, microsome fraction, C8 glucosylceramide quantified by Rapidfire MS/MS
# Format: biochemical
# CONDITION_DETAILS: test compound 10 μM; 1.7 μM UDP-glucose, 3 μM C8 ceramide; room temperature 60 min; read-out: GCS enzyme inhibitory rate at 10 μM (%) (% of control)
Give inhibition at 10 µM for every item shown.
Write the figure, then the unit, nothing else.

Sample records with inhibition at 10 µM:
# SMILES_STRING, inhibition at 10 µM
measured = [
    ("N#Cc1ccc(N2Cc3c(ccnc3-c3ccc(F)cc3OC(F)F)C2=O)nc1", "53%"),
    ("Cc1cc2c(c(-c3ccccc3OCC(F)(F)F)n1)CN(c1ccc(C(F)(F)CO)cc1)C2=O", "100%"),
]

Moving on to the next molecule.
Q. Query (molecule): CC(C)(O)c1ccc(N2Cc3c(ccnc3-c3ccccc3OCC(F)F)C2=O)nc1 ; field requested: inhibition at 10 µM
A. 99%
